assay: Half life in dog liver microsomes at 5 uM; details: microsomes
// reported half-life at 5 µM for each item listed
quantity-name: half-life at 5 µM (min)

>  <molecular-string>
C=CC(=O)NCc1coc(-c2c(N)ncnc2Nc2ccc(Oc3cc(C(F)(F)F)nn3C)c(Cl)c2)n1

>  <lt-gt-eq>
>

>  <recorded-measurement>
100

$$$$
>  <molecular-string>
C=CC(=O)NCc1coc(-c2c(N)ncnc2Nc2ccc(Oc3ccnn3C)c(Cl)c2)n1

>  <lt-gt-eq>
=

>  <recorded-measurement>
51

$$$$
>  <molecular-string>
C=CC(=O)NCc1coc(-c2c(N)ncnc2Nc2ccc(Oc3ccc(C)nc3)c(C)c2)n1

>  <lt-gt-eq>
=

>  <recorded-measurement>
41

$$$$

====

target: UniProt Q05397
Sequence (Q05397 whole entry): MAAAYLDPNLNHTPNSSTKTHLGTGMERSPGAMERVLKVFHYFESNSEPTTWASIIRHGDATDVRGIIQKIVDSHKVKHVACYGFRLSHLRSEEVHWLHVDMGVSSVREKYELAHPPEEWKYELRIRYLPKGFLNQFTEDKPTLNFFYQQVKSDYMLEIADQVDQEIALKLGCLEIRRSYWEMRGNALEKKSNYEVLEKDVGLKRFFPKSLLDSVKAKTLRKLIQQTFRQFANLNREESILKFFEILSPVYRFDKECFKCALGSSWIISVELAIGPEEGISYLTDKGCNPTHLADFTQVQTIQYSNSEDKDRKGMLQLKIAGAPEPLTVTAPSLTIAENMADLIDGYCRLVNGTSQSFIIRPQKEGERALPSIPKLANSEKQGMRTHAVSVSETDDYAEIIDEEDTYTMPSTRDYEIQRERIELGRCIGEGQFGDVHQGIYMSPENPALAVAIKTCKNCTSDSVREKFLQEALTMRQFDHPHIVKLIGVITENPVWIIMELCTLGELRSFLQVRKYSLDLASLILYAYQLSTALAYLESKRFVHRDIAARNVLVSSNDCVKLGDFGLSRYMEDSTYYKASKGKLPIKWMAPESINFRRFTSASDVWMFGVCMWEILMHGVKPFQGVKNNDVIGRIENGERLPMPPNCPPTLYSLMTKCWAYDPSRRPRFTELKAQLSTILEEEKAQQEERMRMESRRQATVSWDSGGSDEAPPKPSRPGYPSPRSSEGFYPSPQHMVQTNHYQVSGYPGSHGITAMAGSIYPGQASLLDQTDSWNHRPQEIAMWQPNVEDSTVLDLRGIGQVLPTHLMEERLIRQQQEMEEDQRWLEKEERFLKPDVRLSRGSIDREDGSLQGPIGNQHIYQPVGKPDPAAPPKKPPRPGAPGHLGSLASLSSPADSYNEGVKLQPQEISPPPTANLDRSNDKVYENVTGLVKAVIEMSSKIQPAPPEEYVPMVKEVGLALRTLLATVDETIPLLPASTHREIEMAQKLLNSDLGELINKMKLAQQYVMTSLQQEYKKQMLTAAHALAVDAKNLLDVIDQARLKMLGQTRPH
pIC50: −log10 of the molar value.
quantity-name: pIC50

>  <molecular-string>
C=CC(=O)NCc1coc(-c2c(N)ncnc2Nc2ccc(OCc3ccccn3)c(Cl)c2)n1

>  <recorded-measurement>
< 5.52

$$$$
